# IC50 per entry
tested on: CEM cells HIV-1 protection, formazan growth assay; assay: NCI AIDS Antiviral Assay; details: measured here: growth of uninfected CEM cells
Lab book: enter the figure in µM, no units written.

Known IC50 results, listed for orientation:
| molecule | IC50, µM |
| --- | --- |
| CCCCNC(=S)SSSC(=S)NCCCC | 2.75 |
| NC(C/C=C/P(=O)(O)O)C(=O)O (stereo not given) | 155 |
| CC(=O)NNc1nc(C)c(C(=O)NNC(=O)C(=O)Nc2nc3ccc([N+](=O)[O-])cc3s2)s1 | 33.1 |

Item: CC(=O)c1sc2c(c1OC(=O)c1ccc(Cl)cc1Cl)c(=O)n(-c1ccccc1)c(=S)n2-c1ccccc1 | IC50: 0.0631

IC50 reported for this molecule C=C(CC(=O)Nc1ccc(C(=O)OC)o1)C(=O)OC : 3.89

Form: molecule = Cc1ccn2c(c1)nc1nc3ccccc3nc12 ; IC50 = 110

What the record says about O=c1[nH]c(-c2ccccc2)nc2c1OCN(Cc1ccccc1)C2 : IC50 is 28.8

###

test system: CEM cells HIV-1 protection, formazan growth assay; test: NCI AIDS Antiviral Assay
measured-endpoint: EC50

Here is how some compounds turned out for EC50.
| compound | value |
| --- | --- |
| COC(=O)[C@]1(C)CC[C@]2(C)CC[C@]3(C)C4CC[C@@]5(COC(C)=O)C(CCC(=O)[C@@H]5C)[C@]4(C)CCC3(C)[C@@H]2C1 (some centres undefined) | > 33.9 µM |
| CCC[CH2][Sn]1([CH2]CCC)[O]C(=O)c2cccnc2[S]1 | > 33.9 µM |
| COc1ccc(C(=O)C2CC3(CCC2(O)c2ccc(OC)cc2)CC(=O)Nc2ccccc2C3=O)cc1 (centres undefined) | > 200 µM |
| COc1ccc(S(=O)(=O)n2c3c(c4ccccc42)[C@@H]2[C@@H](CCCN2C(=O)CS(=O)c2ccc(C)cc2)[C@H](Cl)C3)cc1 (some centres undefined) | > 200 µM |
| Nc1nc2nc3c(nc2c(=O)[nH]1)CN(C1CCCCC1)C3=O | > 74.1 µM |

EC50 measured on CCCCCCCCCCCCOCCOCCOCCOCCOCCOCC(=O)NC(Cc1ccccc1)C(=O)Oc1ccc([N+](=O)[O-])cc1 (centres undefined) = > 200 µM

Lab book: EC50 of O=C1/C(=C/c2ccc(O)cc2)NC(=S)N1CN1CCCCC1 noted as > 200 µM

For record O=c1[nH]cc(CCl)c(=O)[nH]1 the listed EC50 is > 200 µM

Entry CCOC(=O)/C(ON)=C(/CC/C(C(=O)OC)=C(\ON)C(=O)OCC)C(=O)OC — recorded EC50 = 155 µM

###

test system: CEM cells HIV-1 protection, formazan growth assay; test: NCI AIDS Antiviral Assay
pEC50: −log10 of the molar value.
measured-endpoint: pEC50

Reference set, count: 5
| molecule | pEC50 |
| --- | --- |
| O=Cc1[nH]c(=O)[nH]c(=O)c1C(=O)O | < 3.70 |
| CN(C)c1ccc(/C=C(\C#N)c2ccc(Cl)cc2Cl)cc1 | < 3.70 |
| S=C(NCc1ccccc1)N/N=C/c1ccccn1 | < 4.70 |
| CSC1OC(C)(C)OC1=O (stereo not drawn) | < 3.70 |
| CC(Oc1ccc(OCC2CCCCC2)cc1)C(=O)N(CCO)CCO (stereo not drawn) | < 3.16 |

Lookup result for Cc1csc2nc(-c3cccs3)nn12 ; measured pEC50: < 3.70

Memo: CC(C)/C(Cl)=N\OC(=O)Nc1ccc(S(N)(=O)=O)cc1 , reported pEC50: < 3.70
